Measured values drawn from PubChem BioAssay (NCI) for this set.

Listing of recorded TGI by entry.
Tested on: MOLT-4 leukemia
testDescription: NCI tumour cell line growth inhibition, 48 h

1. NS(=O)(=O)c1cc(S(N)(=O)=O)c(NC(=O)Nc2ccc(Cl)c(Cl)c2)c(Cl)c1Cl	> 100 µM
2. CCOP(=O)(OCC)/C(=C/c1ccccc1)CC(C)=O	> 100 µM
3. CC(C)(C)c1ccc(O)c(Br)c1	> 100 µM
4. COC(=O)C1C2CC3C(OC(=O)C31)C2I (stereo not drawn)	> 100 µM

Exercise: // TGI lookup, key: Nc1sccc1S(=O)(=O)c1ccsc1N
Key: > 100 µM

Exercise: Find the recorded TGI belonging to O=C1OCC2=C1C(c1ccccc1)c1cc3c(cc1N2CCO)CCC3 (stereo not drawn) and report it.
Key: > 25 µM

Exercise: Value lookup for TGI; key = CCOC(=O)c1ccc(-c2cccs2)n1C
Key: > 100 µM

Exercise: Given the entry CC(=O)Oc1ccn2nc(C)c(Cc3c(C)nn4ccc(OC(C)=O)cc34)c2c1 , report its measured TGI.
Key: > 100 µM

Exercise: Any idea what TGI was measured for O=[N+]([O-])c1ccc(Oc2cccnc2)c([N+](=O)[O-])c1 ?
Key: 32.2 µM

Exercise: So what does the record say about TGI for Nc1nc(N)nc(-c2cnc3ccccc3c2)n1 ?
Key: > 100 µM

Exercise: Query: TGI; subject: CC(C)(C)C1CCC2c3c([nH]c4ccccc34)C3C(=O)N(c4cccc(Cl)c4)C(=O)C3C2C1 (stereo not drawn)
Key: 13 µM

Exercise: May I ask what TGI has been recorded for NCC(=O)Nc1ccc(-n2nc(C(F)(F)F)cc2-c2ccc3c(ccc4ccccc43)c2)cc1 ?
Key: 4.01 µM

Exercise: Requested field: TGI. Item: COc1ccc(Nc2nc(NCc3ccccc3)c3ccccc3n2)cc1
Key: 5.28 µM

Exercise: Endpoint output: TGI of Nc1cc(OCc2ccccc2)c(OCc2ccccc2)cc1C=O . Value?
Key: > 100 µM

Exercise: What does the data say about its TGI? Entry: Nc1nn(C(=O)Nc2ccc(Cc3ccccc3)cc2)c2ccc(Cl)cc12
Key: 47 µM

Exercise: Query (compound): NNC(=O)CC(=O)Nc1ccc(C(=O)O)cc1 ; field requested: TGI
Key: > 100 µM

Exercise: Which TGI reading was recorded for the compound COc1ccc2cc(-c3ccc(OC)c(OC)c3)c(=O)oc2c1 ?
Key: > 100 µM

Exercise: Could you share which TGI value was measured for O=C(CSc1nc2ccc(Cl)cc2c(=O)n1-c1ccccc1)N=Nc1c(O)[nH]c2ccc(F)cc12 ?
Key: 5.56 µM

Exercise: Which TGI is listed for N#CC(NC12CC3CC(CC(C3)C1)C2)c1ccccc1 (stereo not drawn) ?
Key: > 100 µM

Exercise: I'd like to know its TGI. The compound in question is N#Cc1cc(-c2ccccc2)[nH]c1-c1nccc2ccccc12
Key: 52.2 µM

Exercise: Would you kindly share the measured TGI for COc1cc(/C=C2\N=C(c3ccccc3)N(c3nc4c(Cl)cc(Cl)cc4s3)C2=O)ccc1O ?
Key: 43.3 µM

Exercise: Fill in: TGI of O=C(Nc1cccnc1)c1cccs1 is ___
Key: > 100 µM

Exercise: Fill in the blank: the reported TGI of Cc1cc(NC(=O)NC(=O)c2ccccc2[N+](=O)[O-])ccc1Oc1ncc(Cl)cn1 is ____.
Key: > 100 µM

====

System: NCI-H226 lung
testDescription: NCI tumour cell line growth inhibition, 48 h
observedProperty: TGI

Here is how some compounds turned out for TGI.
1. NC(=O)ON=C1CCN(Cc2ccccc2)CC1	> 100 µM
2. Cc1cc(C)c2c(=O)n(CN3CCN(c4ccccc4)CC3)sc2n1	> 100 µM
3. NS(=O)(=O)c1cc(S(N)(=O)=O)c(NC(=O)Nc2ccc(Cl)c(Cl)c2)c(Cl)c1Cl	> 100 µM
4. NC(CCc1ccccc1)(C(=O)O)c1ccccc1 (stereo unspecified)	> 100 µM

Exercise: Sample C[CH2][Sn]1([CH2]C)[O]C2C(O)OC(CO)C(O)C2[O]1 (stereo unspecified) — what was its TGI?
Key: 26.1 µM

Exercise: Look up TGI: CN(C)c1cc2c(Nc3ccc4nc(Cc5ccccc5)[nH]c4c3)ncnc2cn1
Key: > 25 µM

Exercise: Reported TGI for CN(C)S(=O)(=O)n1ccnc1 : what is it?
Key: > 100 µM

Exercise: State the recorded TGI for this entry: Cc1cc2c(cc1Cl)SC(NN(C)C)=NS2(=O)=O
Key: > 10 µM

Exercise: Consider the compound CC(C)(C)OC(=O)N1C(C2=COc3ccccc3O2)=COc2cccnc21 and give its measured TGI.
Key: 4.31 µM

Exercise: Requested field: TGI. Item: COC1=C(C)C(=O)C2C(C1=O)C(c1ccc(OC)c(OC)c1)[C@H]2C (stereo partly specified)
Key: > 100 µM

Exercise: Return reported TGI; argument: O=c1oc2ccccc2c(-c2ccc(O)cc2)c1Oc1ccc(Cl)cc1
Key: 86.3 µM

====

Test system: HT29 colon
testDescription: NCI tumour cell line growth inhibition, 48 h
The entries below are paired with their reported TGI.
Number in µM, nothing else.

Exercise: Given the compound O=[N+]([O-])c1ccc(Oc2cccnc2)c([N+](=O)[O-])c1 , what is its reported TGI?
Key: 13.8

Exercise: Requested read-out: TGI. Entry: COc1c(Nc2ncc(Cl)c(N[C@@H]3[C@H]4C=CC(C4)[C@@H]3C(N)=O)n2)ccc2c1CC[C@@H](N1CCOCC1)CC2
Key: 10.6

Exercise: # lookup: TGI of COc1cc2c3c(n(CCCN=[N+]=[N-])c(=O)c2cc1OC)-c1ccc(N)cc1C3=O
Key: 0.929

====

Listed below: TGI values for each entry.
Tested on: OVCAR-5 ovarian
testDescription: NCI tumour cell line growth inhibition, 48 h
Write the answer as a number in µM, unit excluded.

1. CC(/C=C/C=C/C=C/C=C/C=C/C(O)=C1/C(=O)C(CCC(=O)O)N(C)C1=O)=C\C(C)C(OC1CC(O)C(O)C(C)O1)C(C)C (stereo not given)	7.83
2. COc1cc(/C=C2/C[C@H]3[C@@H]4CCC5=CC(=O)CC[C@]5(C)[C@H]4CC[C@]3(C)NC2=O)cc(OC)c1OC	57.7
3. CCCCN(CCCC)c1cc(C(=O)CCCCCN)c2ccccc2n1	3.65
4. CC(C)(C)OC(=O)N1C(C2=COc3ccccc3O2)=COc2cccnc21	3.4
5. COc1ccc(Nc2nc(NCc3ccccc3)c3ccccc3n2)cc1	28

Now look at this one.
Exercise: Look up TGI for this molecule: CCOC(=O)c1c(NS(=O)(=O)c2ccc(Br)cc2)sc2c1CCCC2
Key: 18.3

====

Parameter: TGI. Scope: all listed entries.
Tested on: HT29 colon
testDescription: NCI tumour cell line growth inhibition, 48 h
Write it as a number; the unit µM goes unstated.

Below are worked cases with known answers.
1. CCCCCCCCCCCCCCCCCC(=O)[O][Sn]([CH2]CCC)([CH2]CCC)[CH2]CCC	0.311
2. Cn1nc(-c2ccccc2)c(C(=O)/C=C/c2ccccc2)c(N2CCCCC2)c1=O	69
3. CCOC(=O)c1c(Nc2ccccc2)sc2cccnc12	49.6
4. CCCCCCCCC(=O)CCCCCCCCC(=O)O	49.7

Lab note: next molecule to report on.
Exercise: Give its TGI value. Item: NCC(=O)Nc1ccc(-n2nc(C(F)(F)F)cc2-c2ccc3c(ccc4ccccc43)c2)cc1
Key: 2.27

====

Test system: CAKI-1 renal
testDescription: NCI tumour cell line growth inhibition, 48 h; in the data active means GI50 below about 0.43 µM; inactive means the rest
Entry note: the call must match one of Y for active, N for inactive

1. O=C(Nc1cccnc1)c1cccs1	N
2. NC(=O)Cc1ccccc1Oc1nccc(-c2c(-c3ccc(F)cc3)ncn2C2CCNCC2)n1	N
3. Clc1ccc(-c2nc(-c3c[nH]c4ncccc34)cs2)cc1	N
4. Cc1ccccc1NC(=O)N/C(N)=N/c1nc2ccccc2s1	Y
5. O=[N+]([O-])c1ccc(Oc2cccnc2)c([N+](=O)[O-])c1	N
6. COC(=O)c1c2c(c[n+]([O-])c1C)C(=O)C(NCc1ccccc1)=CC2=O	N
7. COC(=O)C1=C(C(=O)Nc2cccnc2)C2OC1(C(Cc1ccccc1)Oc1ccccc1)C1OC21 (stereo not given)	N
8. CC(C)[C@@H]1NC(=O)[C@]2(C)CSC(=N2)c2csc(n2)CNC(=O)C[C@@H](/C=C/CCS)OC1=O	N

Exercise: // return assay outcome for COc1cc(C2=Nc3c/c(=C\c4c(O)[nH]c5ccc(Cl)cc45)ccc3=N2)cc(OC)c1OC
Key: N

Exercise: In this assay, the call recorded for CCS(=O)(=O)c1ccc(OC)c(Nc2ncc(-c3cccc(-c4ccccc4F)c3)o2)c1 was what?
Key: N
